# target: monoclonal antibody mAB 198
# experiment: peptide microarray, fluorescence, linear peptide
Entries and their relative signal [%]

binder	relative signal [%]
LRYNPAD [LRYNPAD, linear mimotope]	15.9%
RTNPADY [RTNPADY, linear mimotope]	7.2%
RLRWNPADYHG	12.4%
RGNPADYGG	13%
